Test: Half life in Cynomolgus monkey at 3 mg/kg, po
Assay type: ADME, organism-based, Macaca fascicularis
Conditions: in vivo
value_kind: half-life (h)
The response must be a number in h with no trailing unit.

[Q] Entry Nc1nonc1-c1nc2cccc(F)c2n1Cc1cccnn1 : reported half-life = ?
[A] 1.9

----------
molecules and their reported fraction unbound
Experiment: Protein binding in mouse plasma assessed as unbound fraction by equilibrium dialysis
Assay type: ADME, cell-free
Give your answer as a number; write no unit.

Nc1nonc1-c1nc2c(F)ccc(F)c2n1Cc1cccnn1 :: 0.159
Nc1nonc1-c1nc2cccc(F)c2n1Cc1cncnc1 :: 0.129
Nc1nonc1-c1nc2cccc(F)c2n1Cc1ccncn1 :: 0.111
Nc1nonc1-c1nc2cccc(F)c2n1Cc1cnccn1 :: 0.138
Nc1nonc1-c1nc2cccc(F)c2n1Cc1ccnnc1 :: 0.188
N#Cc1ccc(Cn2c(-c3nonc3N)nc3cccc(F)c32)nn1 :: 0.071
Nc1nonc1-c1nc2cccc(F)c2n1Cc1cccnn1 :: 0.173
Nc1nonc1-c1nc2cccc(F)c2n1Cc1ccc(C(F)(F)F)nn1 :: 0.035

Field: next molecule
[Q] Entry Nc1nonc1-c1nc2ccc(F)c(F)c2n1Cc1cccnn1 : reported fraction unbound = ?
[A] 0.161

----------
molecules and their reported Kp uu at 4 h
Assay: Ratio of unbound drug concentration in brain to plasma C57BL/6 mouse at 10 mg/kg, po measured after 4 hrs by LC-MS/MS analysis
Assay type: ADME, organism-based
Details: brain and plasma, read-out: K(p,uu,brain)
Give your answer as a number; write no unit.

Solved cases below.
Nc1nonc1-c1nc2ccc(F)c(F)c2n1Cc1cccnn1 :: 0.7
Nc1nonc1-c1nc2cccc(F)c2n1Cc1cccnn1 :: 0.66
Nc1nonc1-c1nc2c(F)ccc(F)c2n1Cc1cccnn1 :: 0.8

[Q] Entry Nc1nonc1-c1nc2cccc(F)c2n1Cc1ccnnc1 : reported Kp uu at 4 h = ?
[A] 1.9

[Q] Entry Nc1nonc1-c1nc2cccc(F)c2n1Cc1cnccn1 : reported Kp uu at 4 h = ?
[A] 2.2

----------
Assay: Protein binding in mouse brain assessed as unbound fraction by equilibrium dialysis
Format: ADME, tissue-based
Labelling: fraction unbound reported below 0.06 becomes y; at or above becomes n.

Here are 5 compounds together with their reported answers.
Nc1nonc1-c1nc2cccc(F)c2n1Cc1ccnnc1 :: n
Nc1nonc1-c1nc2cccc(F)c2n1Cc1ccncn1 :: n
Nc1nonc1-c1nc2cccc(F)c2n1Cc1cccnn1 :: n
Nc1nonc1-c1nc2cccc(F)c2n1Cc1cnccn1 :: n
Nc1nonc1-c1nc2c(F)ccc(F)c2n1Cc1cccnn1 :: n

[Q] Hello, I'm reviewing records and need to know if fraction unbound of Nc1nonc1-c1nc2cccc(F)c2n1Cc1ccc(C(F)(F)F)nn1 is below 0.06. Could you check?
[A] y

[Q] Hello, I'm reviewing records and need to know if fraction unbound of N#Cc1ccc(Cn2c(-c3nonc3N)nc3cccc(F)c32)nn1 is below 0.06. Could you check?
[A] n

[Q] Hello, I'm reviewing records and need to know if fraction unbound of Nc1nonc1-c1nc2ccc(F)c(F)c2n1Cc1cccnn1 is below 0.06. Could you check?
[A] n

[Q] Hello, I'm reviewing records and need to know if fraction unbound of Nc1nonc1-c1nc2cccc(F)c2n1Cc1cncnc1 is below 0.06. Could you check?
[A] y

----------
molecules and their reported IC50
Target: Potassium channel subfamily K member 13 (Homo sapiens)
Sequence (Q9HB14 whole entry): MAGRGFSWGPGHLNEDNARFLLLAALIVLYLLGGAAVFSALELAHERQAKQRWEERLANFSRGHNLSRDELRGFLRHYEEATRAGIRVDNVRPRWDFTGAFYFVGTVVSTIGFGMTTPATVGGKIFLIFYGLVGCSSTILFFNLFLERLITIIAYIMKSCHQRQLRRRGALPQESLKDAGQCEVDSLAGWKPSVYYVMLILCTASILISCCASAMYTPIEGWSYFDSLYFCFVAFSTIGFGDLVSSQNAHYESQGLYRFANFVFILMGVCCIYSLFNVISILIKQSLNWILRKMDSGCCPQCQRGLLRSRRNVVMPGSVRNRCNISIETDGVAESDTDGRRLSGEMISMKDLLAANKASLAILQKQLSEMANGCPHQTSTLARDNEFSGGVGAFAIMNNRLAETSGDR
Assay: Inhibition of human KCNK13 transfected in HEK293 cells
Assay type: cell-based
The response must be a number in nM with no trailing unit.

[Q] Entry Nc1nonc1-c1nc2c(F)ccc(F)c2n1Cc1cccnn1 : reported IC50 = ?
[A] 37

[Q] Entry Nc1nonc1-c1nc2ccc(F)cc2n1Cc1ccncc1 : reported IC50 = ?
[A] 34

[Q] Entry N#Cc1ccc(Cn2c(-c3nonc3N)nc3cccc(F)c32)nn1 : reported IC50 = ?
[A] 50

FYI, the data here is from ChEMBL document CHEMBL5634193.
